These measurements were taken from ChEMBL document CHEMBL4513216.

- Assay: Toxicity liver stage against HepG2, at 10uM
- Format: cell-based
- Set-up: test concentration 10 uM, cell line HepG2-A16-CD81EGFP
- Study conditions: human, HepG2-A16-CD81EGFP cells; read-out: INHIBITION
Property name: cytotoxicity at 10 µM (%)
Unit % implied. Number only.

# example entries with known answers
| Compound | Observed result |
| --- | --- |
| Cc1ccc(CN2CCC3(CC2)CC(c2cccnc2)C(=O)N3C)o1 (configuration not stated) | -2.71 |
| COc1ccc(N2CCC(NC(=O)c3ccc(C#N)cc3)CC2)cc1 | -14.7 |
| O=C(Cc1ccsc1)NC1CCc2c(ccc(=O)n2CC2CC2)C1 (configuration not stated) | 8.88 |
| N#Cc1cccc(CN2C[C@H](OCC3CCOCC3)[C@H]3COC[C@H]32)c1 | -0.82 |
| Cc1cc(C2CCCN(C(=O)c3ccc(C)[nH]c3=O)C2)n[nH]1 (configuration not stated) | -5.65 |
| Cc1cc(CC(C)NC(=O)c2n[nH]c3c2CCC3)n[nH]1 (configuration not stated) | -144 |

Please look at the following compound next.
Ask: Look up cytotoxicity at 10 µM of `Cc1cnccc1NCCNC1CCN(CC(C)C)CC1` and report it.
Result: -10

###

Entries and their measured cytotoxicity at 10 µM follow.
- Assay: Toxicity liver stage against HepG2, at 10uM
- Format: cell-based
- Set-up: test concentration 10 uM, cell line HepG2-A16-CD81EGFP
- Study conditions: human, HepG2-A16-CD81EGFP cells; read-out: INHIBITION
Unit % implied. Number only.

# example entries with known answers
| Compound | Property name | Observed result |
| --- | --- | --- |
| C[C@@H]1CN(Cc2ccsc2)C[C@]12CCN(Cc1cccnc1)C2=O | cytotoxicity at 10 µM | 7.62 |
| Cc1occc1C(=O)N1CCC2(CCN(C(=O)c3cccnc3)C2)CC1 | cytotoxicity at 10 µM | -88.1 |
| CS(=O)(=O)c1snnc1C1CCN(Cc2cccc(O)c2)CC1 | cytotoxicity at 10 µM | -8.91 |
| COc1cc(N2C[C@@H]3COC[C@]3(COc3ccccn3)C2)ncn1 | cytotoxicity at 10 µM | 1.35 |
| Cc1ccc2[nH]c(CN(C)c3cc(CCN)nc(C)n3)nc2c1 | cytotoxicity at 10 µM | 0 |
| CC(=O)N1CCN(C(=O)NCc2ccc(Cl)s2)CC1 | cytotoxicity at 10 µM | -15.4 |
| Cc1ncn(-c2cc(N3CCN(S(C)(=O)=O)CC3)ncn2)c1C | cytotoxicity at 10 µM | 6.23 |
| Nc1nc(N2CCCCCC2)ncc1C(=O)NCc1ccc(F)c(Cl)c1 | cytotoxicity at 10 µM | -0.585 |

Ask: Look up cytotoxicity at 10 µM of Cc1nn(C)c(Cl)c1C1CCCN1C(=O)c1cc[nH]n1 (stereo not drawn) and report it.
Result: -5.55

Ask: Look up cytotoxicity at 10 µM of CCOc1ccc(CN2CCCC(c3nn(C)c(=O)n3CC)C2)cn1 (stereo not drawn) and report it.
Result: -2.85

Ask: Look up cytotoxicity at 10 µM of `CCn1cc(CN2CCCN(C(=O)c3sc(C)nc3C)CC2)cn1` and report it.
Result: -14.4

Ask: Look up cytotoxicity at 10 µM of `CN(C)C(=O)[C@@H]1C[C@@H]2CCN(Cc3ccncc3)C[C@@H]2O1` and report it.
Result: 6.36

Ask: Look up cytotoxicity at 10 µM of `O=C(NCc1ccc(Cl)cc1)[C@@H]1Cc2[nH]cnc2CN1CC1CC1` and report it.
Result: 3.67
